// provenance: patent US12006294B2

system: Hela Cells; assay: Cellular ER stress model (tunicamycin, WST-8 cell viability); settings: Homo sapiens, HeLa, 48 h, read-out: % Cell Survival Cmpd(2.5 μM) + Tuni, Hela cells, compound 2.5 μM + tunicamycin, WST-8 viability 48 hours after tunicamycin treatment
Structures can show the parent of a compound that is named as a salt.

{"Molecule": "FC(F)(F)c1cccc(Cl)c1/C=N/NC1=NCCN1 [JM2-131-2, hydrochloride]", "viability at 2.5 µM": "62.6%"}
{"Molecule": "CC/C(=N\\NC(=N)N)c1cccc(Cl)c1", "viability at 2.5 µM": "34.6%"}
{"Molecule": "CNC(=N)N/N=C/c1c(Cl)cccc1Cl [JM2-171-2, hydroiodide]", "viability at 2.5 µM": "67%"}
